assay: Aqueous solubility assay (shake-flask, LC/MS/MS); format: physicochemical; conditions: thermodynamic from solid; unbuffered water, 25° C., 24 hours; SIS3 hydrochloride salt, MO-00005 free base; read-out: Conc. Of Sample (ug/mL), aqueous solubility
PARAMETER: solubility at 24 h (µg/mL)
Field format: number, assumed µg/mL, no unit text.

Ask: Item COc1cc2c(cc1OC)CN(C(=O)/C=C/c1c(-c3ccccc3)nc3ccccn13)CC2 [Compound 8] has what recorded solubility at 24 h?
Result: 321

====

target: CYP2D6 (Homo sapiens, UniProt P10635); construct: CONSTRUCT DETAILS: Microsomes; from tissue; host or cells: human liver microsomes; assay: Cytochrome P450 inhibition assay, human liver microsomes, CYP2D6; type: in vitro ADME; conditions: probe dextromethorphan, dextromethorphan substrate, read-out: CYP2D6 inhibition (HLM, dextromethorphan substrate) Inhibition (%)
Sequence (P10635 whole entry): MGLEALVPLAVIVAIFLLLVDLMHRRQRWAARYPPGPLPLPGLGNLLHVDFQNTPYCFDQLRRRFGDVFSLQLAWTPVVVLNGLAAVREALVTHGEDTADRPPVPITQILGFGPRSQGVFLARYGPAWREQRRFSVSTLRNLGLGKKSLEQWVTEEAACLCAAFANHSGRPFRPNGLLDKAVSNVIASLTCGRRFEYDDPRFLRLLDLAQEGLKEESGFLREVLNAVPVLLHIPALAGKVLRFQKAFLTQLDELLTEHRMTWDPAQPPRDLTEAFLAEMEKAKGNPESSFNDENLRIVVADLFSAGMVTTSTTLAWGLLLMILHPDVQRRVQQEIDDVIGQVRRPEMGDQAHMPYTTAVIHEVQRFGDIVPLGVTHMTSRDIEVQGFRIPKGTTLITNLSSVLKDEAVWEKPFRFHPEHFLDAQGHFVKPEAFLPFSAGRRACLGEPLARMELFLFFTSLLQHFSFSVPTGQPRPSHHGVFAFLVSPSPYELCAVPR
PARAMETER: inhibition at 10 µM (%)
Field format: number, assumed %, no unit text.

Ask: Item `COc1cc2c(cc1OC)CN(C(=O)/C=C/c1c(-c3ccccc3)nc3ccccn13)CC2` has what recorded inhibition at 10 µM?
Result: -2.74

====

target: CYP3A4 (Homo sapiens, UniProt P08684); experiment: Cytochrome P450 inhibition assay, human liver microsomes, CYP3A4; settings: human, probe testosterone
Sequence (P08684 whole entry): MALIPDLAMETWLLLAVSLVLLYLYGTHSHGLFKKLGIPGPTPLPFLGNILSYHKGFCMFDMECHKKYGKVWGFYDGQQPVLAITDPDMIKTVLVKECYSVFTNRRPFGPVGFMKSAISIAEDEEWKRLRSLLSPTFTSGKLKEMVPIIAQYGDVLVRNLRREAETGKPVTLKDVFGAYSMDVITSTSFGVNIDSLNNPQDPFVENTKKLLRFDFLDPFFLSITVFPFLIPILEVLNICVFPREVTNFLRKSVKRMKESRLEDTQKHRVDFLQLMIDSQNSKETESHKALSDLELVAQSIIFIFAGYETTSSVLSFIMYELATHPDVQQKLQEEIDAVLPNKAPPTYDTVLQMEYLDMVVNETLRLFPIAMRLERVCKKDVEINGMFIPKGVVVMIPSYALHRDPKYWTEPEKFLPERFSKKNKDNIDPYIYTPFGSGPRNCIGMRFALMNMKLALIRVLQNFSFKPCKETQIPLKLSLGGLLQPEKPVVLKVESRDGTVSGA
PARAMETER: inhibition at 10 µM (%)
Field format: number, assumed %, no unit text.

Ask: Query inhibition at 10 µM on CYP3A4 (Homo sapiens, UniProt P08684) for `COc1cc2c(cc1OC)CN(C(=O)/C=C/c1c(-c3ccccc3)nc3ccccn13)CC2`
Result: 2.22

====

assay: Aqueous solubility assay (shake-flask, LC/MS/MS); type: physicochemical; details: aqueous buffer pH 7.70, pH 7.7, aqueous buffer, thermodynamic from solid; pH 7.70 buffer, 25° C., 24 hours; SIS3 hydrochloride salt, MO-00005 free base; read-out: Conc. Of Sample (ug/mL), aqueous solubility
PARAMETER: solubility at 24 h (µg/mL)
Field format: number, assumed µg/mL, no unit text.

Ask: Item `COc1cc2c(cc1OC)CN(C(=O)/C=C/c1c(-c3ccccc3)nc3ccccn13)CC2` has what recorded solubility at 24 h?
Result: 269

Data provenance is patent US12090149B2.
